// provenance: ChEMBL document CHEMBL1671718

Assay: Toxicity in human RBC assessed as hemolytic activity at 64 uM
Format: cell-based, Erythrocyte
Details: red blood cells, read-out: Activity
Where a SMILES comes first, the peptide text is derived from it.

compound	hemolysis at 64 µM, %
CC[C@H](C)[C@H](NC(=O)CNC(=O)[C@H](CO)NC(=O)[C@H](CC(C)C)NC(=O)[C@@H](NC(=O)[C@H](CCCCN)NC(=O)CNC(=O)[C@@H](NC(=O)[C@H](CC(C)C)NC(=O)[C@@H]1CCCN1C(=O)[C@H](CC(C)C)NC(=O)[C@@H](N)Cc1ccccc1)[C@@H](C)CC)C(C)C)C(=O)N[C@@H](CC(C)C)C(N)=O (H-FLPLIGKVLSGIL-NH2)	12

###

System: Pseudomonas aeruginosa
Test: Bactericidal activity against multidrug-resistant Pseudomonas aeruginosa clinical isolate assessed as concentration required for >= 3 log10 CFU/ml reduction in viable bacteria in phosphate-buffer saline containing 150 mM sodium salt after 90 mins
Type: functional
Settings: 1.5 h
Where a SMILES comes first, the peptide text is derived from it.
assay-readout: MIC (µM)

molecule	experimental-system	value-operator	result-value
CC[C@H](C)[C@H](NC(=O)CN)C(=O)N[C@@H](Cc1ccccc1)C(=O)N[C@@H](CO)C(=O)N[C@@H](CCCCN)C(=O)N[C@@H](CC(C)C)C(=O)N[C@@H](C)C(=O)NCC(=O)N[C@@H](CCCCN)C(=O)N[C@@H](CCCCN)C(=O)N[C@H](C(=O)N[C@@H](CCCCN)C(=O)N[C@@H](CC(N)=O)C(=O)N[C@@H](CC(C)C)C(=O)N[C@@H](CC(C)C)C(=O)N[C@H](C(=O)N[C@@H](CO)C(=O)NCC(=O)N[C@@H](CC(C)C)C(=O)N[C@@H](CCCCN)C(=O)NCC(N)=O)[C@@H](C)CC)[C@@H](C)CC (H-GIFSKLAGKKIKNLLISGLKG-NH2)	Pseudomonas aeruginosa	=	4
CC[C@H](C)[C@H](NC(=O)CN)C(=O)N[C@@H](Cc1ccccc1)C(=O)N[C@@H](CO)C(=O)N[C@@H](CCCCN)C(=O)N[C@@H](CC(C)C)C(=O)N[C@@H](C)C(=O)NCC(=O)N[C@@H](CCCCN)C(=O)N[C@@H](CCCCN)C(=O)N[C@@H](CC(C)C)C(=O)N[C@@H](CCCCN)C(=O)N[C@@H](CC(N)=O)C(=O)N[C@@H](CC(C)C)C(=O)N[C@@H](CC(C)C)C(=O)N[C@H](C(=O)N[C@@H](CO)C(=O)NCC(N)=O)[C@@H](C)CC (H-GIFSKLAGKKLKNLLISG-NH2)	Pseudomonas aeruginosa	=	16
CC[C@H](C)[C@H](NC(=O)[C@@H]1CCCN1C(=O)[C@H](CC(C)C)NC(=O)[C@@H](N)CC(C)C)C(=O)N[C@H](C(=O)NCC(=O)N[C@@H](CC(N)=O)C(=O)N[C@@H](CC(C)C)C(=O)N[C@@H](CC(C)C)C(=O)N[C@@H](CCCCN)C(=O)N[C@@H](CO)C(=O)N[C@@H](CC(C)C)C(=O)N[C@@H](CC(C)C)C(N)=O)C(C)C (H-LLPIVGNLLKSLL-NH2)	Pseudomonas aeruginosa	>	64

###

Test system: Pseudomonas aeruginosa
Assay: Bactericidal activity against multidrug-resistant Pseudomonas aeruginosa clinical isolate assessed as concentration required for >= 3 log10 CFU/ml reduction in viable bacteria in phosphate-buffer saline containing 150 mM sodium salt after 90 mins
Assay type: functional
Conditions: 1.5 h
Where a SMILES comes first, the peptide text is derived from it.

molecule	value-operator	MIC (µM)
CC[C@H](C)[C@H](NC(=O)[C@H](CCCNC(=N)N)NC(=O)CNC(=O)[C@H](CC(C)C)NC(=O)[C@H](Cc1ccccc1)NC(=O)[C@H](CCCCN)NC(=O)[C@H](CO)NC(=O)[C@H](Cc1ccccc1)NC(=O)[C@H](Cc1c[nH]c2ccccc12)NC(=O)[C@H](CCC(N)=O)NC(=O)[C@@H](NC(=O)[C@@H](N)Cc1ccccc1)C(C)C)C(=O)N[C@@H](CC(C)C)C(N)=O [TEMPORIN L] (H-FVQWFSKFLGRIL-NH2)	=	16
CC[C@H](C)[C@H](NC(=O)CNC(=O)[C@H](CO)NC(=O)[C@H](CC(C)C)NC(=O)[C@@H](NC(=O)[C@H](CCCCN)NC(=O)CNC(=O)[C@@H](NC(=O)[C@H](CC(C)C)NC(=O)[C@@H]1CCCN1C(=O)[C@H](CC(C)C)NC(=O)[C@@H](N)Cc1ccccc1)[C@@H](C)CC)C(C)C)C(=O)N[C@@H](CC(C)C)C(N)=O (H-FLPLIGKVLSGIL-NH2)	>	64

###

Test: Toxicity in human RBC assessed as hemolytic activity at 32 uM
Type: cell-based, Erythrocyte
Conditions: red blood cells, read-out: Activity
Where a SMILES comes first, the peptide text is derived from it.

compound	hemolysis at 32 µM
CC[C@H](C)[C@H](NC(=O)[C@@H]1CCCN1C(=O)[C@H](CC(C)C)NC(=O)[C@@H](N)CC(C)C)C(=O)N[C@H](C(=O)NCC(=O)N[C@@H](CC(N)=O)C(=O)N[C@@H](CC(C)C)C(=O)N[C@@H](CC(C)C)C(=O)N[C@@H](CCCCN)C(=O)N[C@@H](CO)C(=O)N[C@@H](CC(C)C)C(=O)N[C@@H](CC(C)C)C(N)=O)C(C)C (H-LLPIVGNLLKSLL-NH2)	5%
